Form field: pEC50 (one value per entry).
Target: human mGluR5 receptor (Homo sapiens (Human), UniProt P41594)
Sequence (P41594 21-1212): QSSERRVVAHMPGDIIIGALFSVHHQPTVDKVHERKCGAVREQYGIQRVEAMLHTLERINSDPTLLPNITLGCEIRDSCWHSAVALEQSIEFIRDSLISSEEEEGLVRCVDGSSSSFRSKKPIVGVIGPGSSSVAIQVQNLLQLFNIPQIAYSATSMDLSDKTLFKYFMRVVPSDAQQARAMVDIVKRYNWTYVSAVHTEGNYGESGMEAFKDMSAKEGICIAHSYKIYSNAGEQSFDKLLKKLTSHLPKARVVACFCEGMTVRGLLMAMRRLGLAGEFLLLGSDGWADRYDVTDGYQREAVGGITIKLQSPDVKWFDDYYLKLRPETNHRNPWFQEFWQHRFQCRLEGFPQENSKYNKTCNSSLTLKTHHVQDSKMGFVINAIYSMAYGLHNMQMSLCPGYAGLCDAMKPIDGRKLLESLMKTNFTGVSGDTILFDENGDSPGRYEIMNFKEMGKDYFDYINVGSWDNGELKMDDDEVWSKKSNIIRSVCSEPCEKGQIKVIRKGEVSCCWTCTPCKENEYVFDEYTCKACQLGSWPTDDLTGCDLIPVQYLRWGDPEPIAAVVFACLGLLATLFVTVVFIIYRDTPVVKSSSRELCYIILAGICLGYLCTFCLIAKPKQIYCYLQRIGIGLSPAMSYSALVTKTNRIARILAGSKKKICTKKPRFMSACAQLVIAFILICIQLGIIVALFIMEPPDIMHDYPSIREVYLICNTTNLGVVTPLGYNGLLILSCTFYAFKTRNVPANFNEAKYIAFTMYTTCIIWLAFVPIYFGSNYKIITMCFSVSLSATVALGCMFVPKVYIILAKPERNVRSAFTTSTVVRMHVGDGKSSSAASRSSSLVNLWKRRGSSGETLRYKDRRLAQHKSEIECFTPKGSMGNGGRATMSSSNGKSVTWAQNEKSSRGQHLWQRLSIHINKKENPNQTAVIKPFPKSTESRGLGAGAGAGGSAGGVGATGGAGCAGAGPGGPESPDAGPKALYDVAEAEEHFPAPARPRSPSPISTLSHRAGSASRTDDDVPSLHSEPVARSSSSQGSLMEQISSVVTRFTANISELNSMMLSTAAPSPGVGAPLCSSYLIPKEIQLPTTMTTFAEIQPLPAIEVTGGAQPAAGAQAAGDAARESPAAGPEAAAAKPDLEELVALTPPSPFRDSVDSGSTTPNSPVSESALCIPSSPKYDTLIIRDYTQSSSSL
Assay: Calcium influx assay based on fluorescence (mGluR5 PAM activity)
Details: human mGluR5 receptor-overexpressed HEK293 cell line; L-glutamate EC20; Fluo-4, FLIPR
pEC50: −log10 of the molar value.

| STRUCTURE | pEC50 |
| --- | --- |
| Fc1ccc(OCc2cn3cc(-c4cncc(Cl)c4)cnc3n2)cc1 | 6.30 to 7.00 |
| Cc1cc(F)ccc1-c1cnc2nc(COc3cncc(F)c3)cn2c1 | 6.30 to 7.00 |
| FC(F)(F)c1cc(Cl)ccc1-c1cnc2nc(COc3ccccn3)cn2n1 | 6.00 to 6.30 |
| Fc1cccc(OCc2cn3cc(-c4ccc(F)nc4)cnc3n2)c1 | 6.30 to 7.00 |
| Cc1cc(Cl)ccc1-c1cnc2nc(COc3ccc(F)cn3)cn2c1 | 6.30 to 7.00 |
| OCc1cc(F)ccc1-c1cnc2nc(COc3ccccn3)cn2c1 | 6.30 to 7.00 |

====

Biological target: human mGluR5 receptor (Homo sapiens (Human), UniProt P41594)
Test: Calcium influx assay based on fluorescence (mGluR5 PAM activity)
Settings: human mGluR5 receptor-overexpressed HEK293 cell line; L-glutamate EC20; Fluo-4, FLIPR
pEC50: −log10 of the molar value.

| STRUCTURE | TARGET_ENTITY | pEC50 |
| --- | --- | --- |
| Fc1ccc(-c2cnc3nc(COc4ccc(F)nc4)cn3c2)c(F)c1 | human mGluR5 receptor (Homo sapiens (Human), UniProt P41594) | 6.00 to 6.30 |
| Nc1cc(F)c(F)cc1-c1cnc2nc(COc3ccc(F)cc3)cn2c1 | human mGluR5 receptor (Homo sapiens (Human), UniProt P41594) | 6.00 to 6.30 |
| Fc1ccc(-c2cnc3nc(COc4ccccn4)cn3c2)c(F)c1 | human mGluR5 receptor (Homo sapiens (Human), UniProt P41594) | 6.30 to 7.00 |

====

Molecular target: human mGluR5 receptor (Homo sapiens (Human))
Experiment: Calcium influx assay based on fluorescence (mGluR5 PAM activity)
Conditions: human mGluR5 receptor-overexpressed HEK293 cell line; L-glutamate EC20; Fluo-4, FLIPR
Form field: EC50 (one value per entry).

| COMPOUND | EC50 |
| --- | --- |
| CC(C)c1ccccc1-c1cnc2nc(COc3ccccn3)cn2c1 [Example 143] | 500 to 1000 nM |
| Fc1ccc(-c2cnc3nc(COc4ccccc4)cn3n2)c(F)c1 [Example 178] | 100 to 500 nM |
| Fc1ccc(-c2cnc3nc(COc4ccnc(Cl)c4)cn3c2)cc1 [Example 172] | 100 to 500 nM |
| Fc1ccc(-c2cnc3nc(COc4ccccc4)cn3c2)cc1Cl [Example 13] | 500 to 1000 nM |
